B1: INTS3 (parent)
chain: EEITEESLEESVGKPLYLIFRNLC

Variants of: B1
Assay: protein stability index of a GFP-peptide fusion (GPS, HEK-293T) (PSI 1-6); higher = more stable;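 further: lentivirally expressed fusions sorted by FACS into six bins by GFP to DsRed ratio, PSI derived from sequencing read proportions per bin multiplied by bin number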
Conditions: c terminus: a fixed tail appended
Outcome: class 1 for protein stability index of at least 3; class 0 for anything lower.

Residue sequence	Class
EEITEESLEESVGKPLYLCFRNLC [I19C]	class 1
EEITEESLCESVGKPLYLIFRNLC [E9C]	class 0
EEITEESLEESVGKQLYLIFRNLC [P15Q]	class 0
EEITNESLEESVGKPLYLIFRNLC [E5N]	class 0
EEITEESTEESVGKPLYLIFRNLC [L8T]	class 1
EEITEESLEESVGKALYLIFRNLC [P15A]	class 0
EEITEESLEESVTKPLYLIFRNLC [G13T]	class 0
EEITEESLEESVGKPLCLIFRNLC [Y17C]	class 1
EEITEVSLEESVGKPLYLIFRNLC [E6V]	class 0
EEIWEESLEESVGKPLYLIFRNLC [T4W]	class 0
EEITEESLEESVGKPLYDIFRNLC [L18D]	class 1
EEITEETLEESVGKPLYLIFRNLC [S7T]	class 1
EEITEESLEESVGKPLYGIFRNLC [L18G]	class 1
EEITEESLEESVGKPQYLIFRNLC [L16Q]	class 1
EEITEESLEESVGKELYLIFRNLC [P15E]	class 0
EEITEESLEESVGKPLYPIFRNLC [L18P]	class 1
EEITEESVEESVGKPLYLIFRNLC [L8V]	class 1
EEITEESLEESVNKPLYLIFRNLC [G13N]	class 0
EEITEESLEESVGKPLYEIFRNLC [L18E]	class 1
EEITEESPEESVGKPLYLIFRNLC [L8P]	class 1
EEITEESLEESMGKPLYLIFRNLC [V12M]	class 0
